Taken from patent US20250206751A1.

# Test system: human G12D mutant KRAS-positive pancreatic cancer line AsPC-1
# procedure.details: Non-anchorage-dependent cell growth inhibition, spheroid 3D cell culture (Test Example 3)
# Type: cell-based
# experimental.parameters: Homo sapiens, ASPC1, 144 h, AsPC-1 spheroid 3D culture, 6 days, CellTiter Glo 2.0
property: IC50 (nM)
Write the value in nM as a bare number.

molecule	tested.on	IC50 [nM]
Cc1ncoc1-c1ccc([C@H](CO)NC(=O)[C@@H]2C[C@@H](O)CN2C(=O)[C@H](C(C)C)n2cc(-c3ccc(COc4c(-c5c(C)c(F)cc6[nH]ncc56)c(C5CC5)cc5c(N(C)[C@H]6CCNC6)nc(OC[C@@H]6CCCO6)nc45)cc3)nn2)cc1 (atropisomer, axis not shown) [Example 28]	human G12D mutant KRAS-positive pancreatic cancer line AsPC-1	5

Could you now look at the following molecule, please?
Data request: Look up IC50: COCC1(COc2nc(N(C)[C@H]3CCNC3)c3cc(C4CC4)c(-c4c(C)c(F)cc5[nH]ncc45)c(OCc4ccc(-c5cn([C@H](C(=O)N6C[C@H](O)C[C@H]6C(=O)N[C@@H](CO)c6ccc(-c7scnc7C)cc6)C(C)C)nn5)cc4)c3n2)CC1 (atropisomer, axis not shown) [Example 49]
Data returned: 10

###

# tested.on: KRAS G12D protein (Homo sapiens, UniProt P01116, G12D)
# Construct: host or cells: AsPC-1
# Sequence (P01116 1-188 isoform P01116-2 G12D): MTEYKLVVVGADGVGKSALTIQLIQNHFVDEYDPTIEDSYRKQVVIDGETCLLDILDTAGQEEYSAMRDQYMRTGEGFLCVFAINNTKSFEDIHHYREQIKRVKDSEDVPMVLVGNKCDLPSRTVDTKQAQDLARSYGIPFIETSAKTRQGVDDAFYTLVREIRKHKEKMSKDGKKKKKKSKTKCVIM
# procedure.details: KRAS degradation activity by Cell ELISA in AsPC-1 (Test Example 1)
# Assay type: cell-based
# experimental.parameters: AsPC-1 cells, cultured overnight with compound, corrected with β-actin, read-out: DC50 (50% degradation concentration of the amounts of KRAS)
property: DC50 (nM)

compound	tested.on	endpoint.value
CO[C@H](COc1nc(N(C)[C@H]2CCNC2)c2cc(C3CC3)c(-c3c(C)c(F)cc4[nH]ncc34)c(OCc3ccc(-c4cn([C@H](C(=O)N5C[C@H](O)C[C@H]5C(=O)N[C@@H](CO)c5ccc(-c6scnc6C)cc5)C(C)C)nn4)cc3)c2n1)C(F)F (atropisomer, axis not shown)	KRAS G12D protein (Homo sapiens, UniProt P01116, G12D)	41
CO[C@@H](C)COc1nc(N(C)[C@H]2CCNC2)c2cc(C3CC3)c(-c3c(C)c(F)cc4[nH]ncc34)c(OCc3ccc(-c4cn([C@H](C(=O)N5C[C@H](O)C[C@H]5C(=O)N[C@@H](CO)c5ccc(F)cc5)C(C)C)nn4)cc3)c2n1 (atropisomer, axis not shown)	KRAS G12D protein (Homo sapiens, UniProt P01116, G12D)	61
CO[C@@H](C)COc1cc(N(C)[C@H]2CCNC2)c2cc(C3CC3)c(-c3c(C)c(F)cc4[nH]ncc34)c(OCc3ccc(-c4cn([C@H](C(=O)N5C[C@H](O)C[C@H]5C(=O)N[C@@H](CO)c5ccc(-c6scnc6C)cc5)C(C)C)nn4)cc3)c2n1 (atropisomer, axis not shown; (M)) [Example 11]	KRAS G12D protein (Homo sapiens, UniProt P01116, G12D)	10
CCn1nccc1-c1ccc([C@H](CO)NC(=O)[C@@H]2C[C@@H](O)CN2C(=O)[C@H](C(C)C)n2cc(-c3ccc(COc4c(-c5c(C)c(F)cc6[nH]ncc56)c(C5CC5)cc5c(N(C)[C@H]6CCNC6)nc(OC[C@H](C)OC)nc45)cc3)nn2)nc1 (atropisomer, axis not shown)	KRAS G12D protein (Homo sapiens, UniProt P01116, G12D)	75

(A) Cc1ncsc1-c1ccc([C@H](CO)NC(=O)[C@@H]2C[C@@H](O)CN2C(=O)[C@H](C(C)C)n2cc(-c3ccc(COc4c(-c5c(C)c(F)cc6[nH]ncc56)c(C5CC5)cc5c(N(C)[C@H]6CCNC6)nc(OC[C@@H](C)C(F)F)nc45)cc3)nn2)cc1
(B) CO[C@@H](C)COc1nc(N(C)[C@H]2CCNC2)c2cc(C3CC3)c(-c3c(C)c(F)cc4[nH]ncc34)c(OCc3ccc(-c4cn([C@H](C(=O)N5C[C@H](O)C[C@H]5C(=O)N[C@@H](CO)c5ccc(-n6cncn6)cc5)C(C)C)nn4)cc3)c2n1 (atropisomer, axis not shown)
(C) Cc1ncsc1-c1ccc([C@H](CO)NC(=O)[C@@H]2C[C@@H](O)CN2C(=O)[C@H](C(C)C)n2cc(-c3ccc(COc4c(-c5c(C)c(F)cc6[nH]ncc56)c(C5CC5)cc5c(O[C@H]6CCNC6)nc(OC6CCOCC6)nc45)cc3)nn2)cc1 (atropisomer, axis not shown)
Data request: Arrange the 3 compounds from largest to smallest DC50. Thanks in advance for listing the labels in the requested order.
Data returned: A, B, C
(A: 91 nM, B: 47 nM, C: 13 nM)
